All values here come from ChEMBL document CHEMBL5303573.

condition: bacteroides eggerthii, 12 h, 2 µM
Description: The drug is tested on Bacteroides eggerthii strain: DSM20697 for biotransformation. The drug concentrations were measured before and after a 12-h incubation by liquid-chromatography-coupled mass spectrometry (LC–MS)
property.measured: Bacterial Biotransformation

molecule="Cc1ccc(S(=O)(=O)NC(=O)NN2CC3CCCC3C2)cc1 (stereo unspecified) [GLICLAZIDE]" property_measured="Bacterial Biotransformation" result_value="Compound NOT metabolized"
molecule=O=C([O-])C[C@H](O)C[C@H](O)/C=C/c1c(C2CC2)nc2ccccc2c1-c1ccc(F)cc1.O=C([O-])C[C@H](O)C[C@H](O)/C=C/c1c(C2CC2)nc2ccccc2c1-c1ccc(F)cc1.[Ca+2] property_measured="Bacterial Biotransformation" result_value="Compound NOT metabolized"
molecule="CC(C)(C)NC(=O)[C@H]1CC[C@H]2[C@@H]3CC[C@H]4NC(=O)C=C[C@]4(C)[C@H]3CC[C@]12C [FINASTERIDE]" property_measured="Bacterial Biotransformation" result_value="Compound metabolized"
molecule=CC(=O)Oc1ccc(C(c2ccc(OC(C)=O)cc2)c2ccccn2)cc1 property_measured="Bacterial Biotransformation" result_value="Compound metabolized"
molecule=COc1ccc([C@@H]2Sc3ccccc3N(CCN(C)C)C(=O)[C@@H]2OC(C)=O)cc1 property_measured="Bacterial Biotransformation" result_value="Compound NOT metabolized"
molecule=c1ccc([C@H]2CN3CCSC3=N2)cc1 property_measured="Bacterial Biotransformation" result_value="Compound metabolized"
molecule="C#C[C@]1(OC(C)=O)CC[C@H]2[C@@H]3CCC4=CC(=O)CC[C@@H]4[C@H]3CC[C@@]21C [NORETHINDRONE ACETATE]" property_measured="Bacterial Biotransformation" result_value="Compound metabolized"
molecule="CCOC(=O)[C@H](CCc1ccccc1)N[C@@H](C)C(=O)N1CCC[C@H]1C(=O)O.O=C(O)/C=C\\C(=O)O [ENALAPRIL MALEATE]" property_measured="Bacterial Biotransformation" result_value="Compound NOT metabolized"
molecule="COc1ccc(CN2CCNCC2)c(OC)c1OC.Cl.Cl [TRIMETAZIDINE DIHYDROCHLORIDE]" property_measured="Bacterial Biotransformation" result_value="Compound NOT metabolized"
molecule=Cc1ccnc2c1NC(=O)c1cccnc1N2C1CC1 property_measured="Bacterial Biotransformation" result_value="Compound NOT metabolized"
molecule=C=CCN1CC[C@]23c4c5ccc(O)c4O[C@H]2C(=O)CC[C@@]3(O)[C@H]1C5 property_measured="Bacterial Biotransformation" result_value="Compound metabolized"
molecule=CNC(=C[N+](=O)[O-])NCCSCc1csc(CN(C)C)n1 property_measured="Bacterial Biotransformation" result_value="Compound metabolized"
molecule="CC(C)NCC(O)COc1ccc(CCOCC2CC2)cc1 (stereo unspecified)" property_measured="Bacterial Biotransformation" result_value="Compound NOT metabolized"
molecule=CC(=O)O[C@H]1C(=O)[C@@]2(C)[C@H]([C@H](OC(=O)c3ccccc3)[C@]3(O)C[C@H](OC(=O)[C@H](O)[C@@H](NC(=O)c4ccccc4)c4ccccc4)C(C)=C1C3(C)C)[C@]1(OC(C)=O)CO[C@@H]1C[C@@H]2O property_measured="Bacterial Biotransformation" result_value="Compound NOT metabolized"
molecule=CCOc1ccc(NC(C)=O)cc1 property_measured="Bacterial Biotransformation" result_value="Compound NOT metabolized"
molecule=CN(C)CCc1c[nH]c2ccc(CS(=O)(=O)N3CCCC3)cc12 property_measured="Bacterial Biotransformation" result_value="Compound NOT metabolized"
molecule="COC(=O)C(c1ccccc1)C1CCCCN1 (stereo unspecified) [METHYLPHENIDATE]" property_measured="Bacterial Biotransformation" result_value="Compound NOT metabolized"
molecule="CCC(COC(=O)c1cc(OC)c(OC)c(OC)c1)(c1ccccc1)N(C)C.O=C(O)/C=C\\C(=O)O (stereo unspecified)" property_measured="Bacterial Biotransformation" result_value="Compound NOT metabolized"
molecule="OC(CCN1CCCCC1)(c1ccccc1)C1CC2C=CC1C2 (stereo unspecified)" property_measured="Bacterial Biotransformation" result_value="Compound NOT metabolized"
molecule=C[C@@H](c1ncncc1F)[C@](O)(Cn1cncn1)c1ccc(F)cc1F property_measured="Bacterial Biotransformation" result_value="Compound NOT metabolized"
molecule=Cc1ccc(/C(=C\CN2CCCC2)c2ccccn2)cc1 property_measured="Bacterial Biotransformation" result_value="Compound NOT metabolized"
molecule=CO[C@]12C[C@@H](COC(=O)c3cncc(Br)c3)CN(C)[C@@H]1Cc1cn(C)c3cccc2c13 property_measured="Bacterial Biotransformation" result_value="Compound NOT metabolized"
molecule="CN1[C@@H]2CC[C@H]1C[C@@H](OC(=O)C(CO)c1ccccc1)C2 (stereo partly specified)" property_measured="Bacterial Biotransformation" result_value="Compound NOT metabolized"
molecule="CC(C(=O)O)c1ccc2c(c1)Cc1cccnc1O2 (stereo unspecified)" property_measured="Bacterial Biotransformation" result_value="Compound metabolized"
molecule="CC(C)(C(=O)O)c1ccc(C(O)CCCN2CCC(C(O)(c3ccccc3)c3ccccc3)CC2)cc1 (stereo unspecified) [FEXOFENADINE]" property_measured="Bacterial Biotransformation" result_value="Compound NOT metabolized"
molecule=COc1ccc2c3c1O[C@H]1C[C@@H](O)C=C[C@@]31CCN(C)C2 property_measured="Bacterial Biotransformation" result_value="Compound metabolized"
molecule="CS(=O)(=O)O.O.O.O.O=C1Cc2cc(CCN3CCN(c4nsc5ccccc45)CC3)c(Cl)cc2N1 [ZIPRASIDONE MESYLATE]" property_measured="Bacterial Biotransformation" result_value="Compound NOT metabolized"
molecule=O=C(CCCN1CCC(O)(c2ccc(Cl)cc2)CC1)c1ccc(F)cc1 property_measured="Bacterial Biotransformation" result_value="Compound NOT metabolized"
molecule="CCOc1cc(CC(=O)N[C@@H](CC(C)C)c2ccccc2N2CCCCC2)ccc1C(=O)O [REPAGLINIDE]" property_measured="Bacterial Biotransformation" result_value="Compound metabolized"
molecule=CN1C(C(=O)Nc2ccccn2)=C(O)c2sccc2S1(=O)=O property_measured="Bacterial Biotransformation" result_value="Compound NOT metabolized"
molecule=CC(C)c1nc(N(C)S(C)(=O)=O)nc(-c2ccc(F)cc2)c1/C=C/[C@@H](O)C[C@@H](O)CC(=O)[O-].CC(C)c1nc(N(C)S(C)(=O)=O)nc(-c2ccc(F)cc2)c1/C=C/[C@@H](O)C[C@@H](O)CC(=O)[O-].[Ca+2] property_measured="Bacterial Biotransformation" result_value="Compound NOT metabolized"

###

test.name: The drug is tested on Anaerotruncus colihominis strain: DSM17241 for biotransformation. The drug concentrations were measured before and after a 12-h incubation by liquid-chromatography-coupled mass spectrometry (LC–MS)
condition: 2 µM
property.measured: Bacterial Biotransformation

molecule="CCCN1C[C@H](CSC)C[C@@H]2c3cccc4[nH]cc(c34)C[C@H]21.CS(=O)(=O)O [PERGOLIDE MESYLATE]" result_value="Compound NOT metabolized"
molecule="CN1C(=O)CCS(=O)(=O)C1c1ccc(Cl)cc1 (stereo not drawn) [CHLORMEZANONE]" result_value="Compound NOT metabolized"
molecule="CCCCCNC(=N)N/N=C/c1c[nH]c2ccc(OC)cc12.O=C(O)/C=C\\C(=O)O [TEGASEROD MALEATE]" result_value="Compound NOT metabolized"
molecule="COc1cc2nc(N3CCN(C(=O)c4ccco4)CC3)nc(N)c2cc1OC [PRAZOSIN]" result_value="Compound NOT metabolized"
molecule="CC(C)(Oc1ccc(CCNC(=O)c2ccc(Cl)cc2)cc1)C(=O)O [BEZAFIBRATE]" result_value="Compound NOT metabolized"
molecule="CC(C)N(CCC(C(N)=O)(c1ccccc1)c1ccccn1)C(C)C.O=P(O)(O)O (stereo not drawn) [DISOPYRAMIDE PHOSPHATE]" result_value="Compound NOT metabolized"
molecule="CCN(CC)CC#CCOC(=O)C(O)(c1ccccc1)C1CCCCC1.Cl (stereo not drawn) [OXYBUTYNIN CHLORIDE]" result_value="Compound NOT metabolized"
molecule="O=C(O[C@H]1C[C@H]2CC[C@@H](C1)[N+]21CCCC1)C(O)(c1ccccc1)c1ccccc1.[Cl-] [TROSPIUM CHLORIDE]" result_value="Compound NOT metabolized"
molecule="CO[C@]12C[C@@H](COC(=O)c3cncc(Br)c3)CN(C)[C@@H]1Cc1cn(C)c3cccc2c13 [NICERGOLINE]" result_value="Compound NOT metabolized"
molecule="CN(C)C(=O)C(CCN1CCC(O)(c2ccc(Cl)cc2)CC1)(c1ccccc1)c1ccccc1 [LOPERAMIDE]" result_value="Compound NOT metabolized"
molecule="Br.CN1CCC[C@@H]1Cc1c[nH]c2ccc(CCS(=O)(=O)c3ccccc3)cc12 [ELETRIPTAN HYDROBROMIDE]" result_value="Compound NOT metabolized"
molecule="C[N+]12CCC(CC1)C(OC(=O)C(O)(c1ccccc1)c1ccccc1)C2.[Br-] (stereo not drawn) [CLIDINIUM BROMIDE]" result_value="Compound NOT metabolized"
molecule="C#C[C@]1(OC(C)=O)CC[C@H]2[C@@H]3CCC4=CC(=O)CC[C@@H]4[C@H]3CC[C@@]21C [NORETHINDRONE ACETATE]" result_value="Compound metabolized"
molecule="Nc1nc(NC2CC2)c2ncn([C@H]3C=C[C@@H](CO)C3)c2n1.Nc1nc(NC2CC2)c2ncn([C@H]3C=C[C@@H](CO)C3)c2n1.O=S(=O)(O)O [ABACAVIR SULFATE]" result_value="Compound NOT metabolized"
molecule="CCCc1nc(C(C)(C)O)c(C(=O)OCc2oc(=O)oc2C)n1Cc1ccc(-c2ccccc2-c2nnn[nH]2)cc1 [OLMESARTAN MEDOXOMIL]" result_value="Compound metabolized"
molecule="O=C(O)c1cc(/N=N/c2ccc(S(=O)(=O)Nc3ccccn3)cc2)ccc1O [SULFASALAZINE]" result_value="Compound metabolized"
molecule="Cc1nc(Nc2ncc(C(=O)Nc3c(C)cccc3Cl)s2)cc(N2CCN(CCO)CC2)n1.O [DASATINIB]" result_value="Compound metabolized"
molecule="O=C(NCc1ccccc1)OCCO [BURAMATE]" result_value="Compound NOT metabolized"
